- targetOrSystem: VIM-7 (Pseudomonas aeruginosa, UniProt Q840P9)
- Sequence (Q840P9 18-265): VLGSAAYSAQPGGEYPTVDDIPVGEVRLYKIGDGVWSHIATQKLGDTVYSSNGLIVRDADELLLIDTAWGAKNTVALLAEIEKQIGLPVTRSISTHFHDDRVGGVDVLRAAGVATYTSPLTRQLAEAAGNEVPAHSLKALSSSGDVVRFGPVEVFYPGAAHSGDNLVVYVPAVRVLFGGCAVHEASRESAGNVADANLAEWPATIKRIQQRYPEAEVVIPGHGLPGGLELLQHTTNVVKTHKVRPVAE
- methodNotes: biochemical
measurementType: IC50 (nM)
Report as a plain number; the unit nM is understood.

Task: Identify measured IC50 corresponding to `O=C(N[C@H]1Cc2cccc(C(=O)O)c2OB1O)c1ccc(CNCCN(Cc2ccccn2)Cc2ccccn2)cc1`
Result: 1080
